testSystem: CDK1:Cyclin-B (Homo sapiens, UniProt P06493)
Sequence (P06493 whole entry): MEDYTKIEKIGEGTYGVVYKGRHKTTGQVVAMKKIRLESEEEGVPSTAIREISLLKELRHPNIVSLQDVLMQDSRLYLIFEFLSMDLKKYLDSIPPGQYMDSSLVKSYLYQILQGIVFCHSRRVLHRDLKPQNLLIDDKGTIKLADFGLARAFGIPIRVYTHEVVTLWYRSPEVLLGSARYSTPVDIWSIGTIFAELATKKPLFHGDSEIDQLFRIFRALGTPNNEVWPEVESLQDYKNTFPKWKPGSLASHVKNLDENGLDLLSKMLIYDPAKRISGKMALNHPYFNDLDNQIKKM
Sequence (P14635 whole entry partner): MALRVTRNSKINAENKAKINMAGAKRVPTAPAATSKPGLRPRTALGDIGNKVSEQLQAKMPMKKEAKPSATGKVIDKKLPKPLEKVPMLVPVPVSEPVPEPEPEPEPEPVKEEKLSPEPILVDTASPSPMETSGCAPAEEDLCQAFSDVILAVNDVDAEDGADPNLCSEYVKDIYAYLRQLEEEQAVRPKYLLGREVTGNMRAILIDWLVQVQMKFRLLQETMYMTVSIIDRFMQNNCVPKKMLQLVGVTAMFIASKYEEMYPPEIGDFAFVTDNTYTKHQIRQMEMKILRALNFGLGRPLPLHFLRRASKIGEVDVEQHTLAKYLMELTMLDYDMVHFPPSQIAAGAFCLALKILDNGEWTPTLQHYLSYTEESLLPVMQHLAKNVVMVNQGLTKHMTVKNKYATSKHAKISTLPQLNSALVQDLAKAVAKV
measuredParameter: IC50

Completed entries (count: 5):
O=C(Cc1cc(F)cc(F)c1)Nc1cccc2sc(Nc3ccccc3)nc12 ... > 10 µM
O=C(Nc1cccc2sc(Nc3ccccc3)nc12)c1c(F)cc(F)cc1F ... > 10 µM
O=C(Nc1ccccc1)Nc1cccc2sc(Nc3ccccc3)nc12 ... > 100 µM
O=C(Nc1cccc2sc(Nc3ccccc3)nc12)c1ccc(N2CCOCC2)nc1 ... 14.8 µM
O=C(Nc1cccc2sc(Nc3ccccc3)nc12)Oc1ccccc1 ... > 100 µM

Input: For the compound CCC(=O)Nc1cccc2sc(Nc3ccccc3)nc12 , give its reported IC50.
Output: > 100 µM

Input: Fill in IC50 for record O=C(Cn1cnnn1)Nc1cccc2sc(Nc3ccccc3)nc12
Output: 1.31 µM

Input: Give IC50 for Cc1cc(C)cc(C(=O)Nc2cccc3sc(Nc4ccccc4)nc23)c1
Output: 7.15 µM

Input: Give the measured IC50 for O=C(Nc1cccc2sc(Nc3ccccc3)nc12)c1cccc(Br)c1
Output: > 100 µM

Input: Hello, please tell me recorded IC50 for this one: Cc1ccc(F)c(C(=O)Nc2cccc3sc(Nc4ccc(N5CCN(C)CC5)cc4)nc23)c1F
Output: 2.71 µM

Input: Let me know recorded IC50 for O=C(Nc1c(Cl)cccc1Cl)Nc1cccc2sc(Nc3ccccc3)nc12 , thanks.
Output: 17.5 µM

Input: State its IC50: O=C(Nc1cccc2sc(Nc3ccccc3)nc12)c1cccc([N+](=O)[O-])c1
Output: > 100 µM

Input: Tell me IC50 reported for Cc1ccc(F)c(C(=O)Nc2cccc3sc(Nc4ccccc4)nc23)c1F
Output: 1.55 µM

Input: Respond only with IC50 recorded for O=C(Nc1cccc2sc(Nc3ccccc3)nc12)c1cccs1
Output: > 100 µM

Input: Supply measured IC50 of O=S(=O)(Nc1cccc2sc(Nc3ccccc3)nc12)c1ccccc1 in your reply.
Output: 11.3 µM

Input: Provide only the value of recorded IC50 for O=C(Nc1cccc2sc(Nc3ccccc3)nc12)C1CCCCCC1
Output: > 100 µM

Input: Provide measured IC50 value, entry: O=C(Nc1cccc2sc(Nc3ccccc3)nc12)c1c(Cl)cccc1Cl
Output: 4.3 µM

---

testSystem: VEGF-R2 kinase domain (Rattus norvegicus)
pIC50: −log10 of the molar value.
measuredParameter: pIC50

O=C(Nc1cccc2sc(Nc3ccccc3)nc12)C1CCCCC1 [Cpd 41] ... ≤ 4.00
O=C(Nc1cccc2sc(Nc3ccccc3)nc12)c1ccncc1 [Cpd 28] ... < 4.00
Cc1ccc(F)c(C(=O)Nc2cccc3sc(Nc4ccc(N5CCN(C)CC5)cc4)nc23)c1F [Cpd 49] ... ≤ 4.00
O=S(=O)(Nc1cccc2sc(Nc3ccccc3)nc12)c1ccccc1 [Cpd 30] ... < 4.00

Now turn to the next compound.
Input: Please indicate pIC50 recorded for Cc1ccc(F)c(C(=O)Nc2cccc3sc(Nc4ccc(S(N)(=O)=O)cc4)nc23)c1F [Cpd 12]
Output: < 4.00

---

Target or system VEGF-R2 kinase domain (Rattus norvegicus, UniProt O08775); recorded quantity IC50.

Example molecules with recorded IC50:
CC(C)(C)NC(=O)Nc1cccc2sc(Nc3ccccc3)nc12 [Cpd 60] ... > 100 µM
O=C(CCc1ccccc1)Nc1cccc2sc(Nc3ccccc3)nc12 [Cpd 54] ... > 100 µM
CC(=O)N1CCC(C(=O)Nc2cccc3sc(Nc4ccccc4)nc23)CC1 [Cpd 25] ... > 100 µM

Input: Entry O=C(Nc1cccc2sc(Nc3ccccc3)nc12)c1c(Cl)cccc1Cl [Cpd 47] needs its IC50 filled in; supply it.
Output: > 100 µM

Input: Hello, please tell me recorded IC50 for this one: O=C(CC1CCCCC1)Nc1cccc2sc(Nc3ccccc3)nc12 [Cpd 58]
Output: > 100 µM

---

Observed IC50 for UniProt:P24941, reported per entry below.
Kindly provide the numeric value in µM only, without the unit symbol.

Examples with answers:
O=C(Nc1cccc2sc(Nc3ccccc3)nc12)c1c(F)cc(F)cc1F ... 1.66
Cc1cc(C(=O)Nc2cccc3sc(Nc4ccccc4)nc23)n(C)n1 ... 3.34

Shifting focus to the compound that follows.
Input: Jot down IC50 (UniProt:P24941) of O=C(Nc1ccccc1F)Nc1cccc2sc(Nc3ccccc3)nc12 .
Output: 17.4

---

testSystem: CDK2:Cyclin A (Homo sapiens)
Construct: purchased Upstate Biotech, Lake Placid, N.Y
assaySummary: CDK2 Screening Assay
Type: biochemical
testSettings: 10 μM ATP, biotinylated histone-H1 peptide substrate, 33P-γ-ATP FlashPlate; read-out: Kinase IC50 CDK2
measuredParameter: log10(IC50) (log10 of the value in µM)
The common logarithm of IC50 in µM is what is listed.

Worked cases, answers included:
O=C(Nc1cccc2sc(Nc3ccccc3)nc12)c1cncc(Br)c1 ... 0.92
O=C(Nc1cccc2sc(Nc3ccccc3)nc12)c1c(F)cccc1F ... -0.19
O=C(Nc1cccc2sc(Nc3ccccc3)nc12)c1ccncc1 ... 0.22
Nc1cccc(C(=O)Nc2cccc3sc(Nc4ccccc4)nc23)c1 ... 0.72
O=C(Nc1c(F)cccc1F)Nc1cccc2sc(Nc3ccccc3)nc12 ... 0.76
NS(=O)(=O)c1ccc(C(=O)Nc2cccc3sc(Nc4ccccc4)nc23)cc1 ... 0.48

Input: Report its log10(IC50) with CDK2:Cyclin A (Homo sapiens) as the test system: O=C(Nc1cccc2sc(Nc3ccccc3)nc12)c1c(Cl)cccc1Cl
Output: -0.21

---

# CDK2:Cyclin A (Homo sapiens): IC50 values follow
Unit µM implied. Number only.

Input: GET IC50 | system: CDK2:Cyclin A (Homo sapiens) | item: O=C(Nc1cccc2sc(Nc3ccccc3)nc12)c1ccccc1
Output: 17.5

Input: Give IC50 for O=C(Nc1c(Cl)cccc1Cl)Nc1cccc2sc(Nc3ccccc3)nc12 tested on CDK2:Cyclin A (Homo sapiens).
Output: 3.74

Input: // fetch IC50; item: O=C(Nc1cccc2sc(Nc3ccccc3)nc12)c1ccncn1 ; system: CDK2:Cyclin A (Homo sapiens)
Output: 89.1

Input: Tell me IC50 of O=C(Cn1cnnn1)Nc1cccc2sc(Nc3ccccc3)nc12 when tested on CDK2:Cyclin A (Homo sapiens).
Output: 0.22

Input: Give IC50 only, for O=C(Nc1cccc2sc(Nc3ccccc3)nc12)C1CCCCC1 , using CDK2:Cyclin A (Homo sapiens) data.
Output: 2.05

Input: Under CDK2:Cyclin A (Homo sapiens): report IC50 of Cc1ccc(Nc2nc3c(NC(=O)c4c(F)ccc(C)c4F)cccc3s2)cc1 .
Output: 3.09

---

Tested on: A375 malignant melanoma
assaySummary: Inhibition of cell proliferation (14C-thymidine incorporation), A375
Type: cell-based
testSettings: Homo sapiens, A-375; A375, 14C-thymidine incorporation
measuredParameter: IC50 (µM)
A number alone suffices; assume µM.

Input: For Cc1ccc(F)c(C(=O)Nc2cccc3sc(Nc4ccccc4)nc23)c1F , write its IC50.
Output: 10.4

---

testSystem: VEGF-R2 kinase domain (Rattus norvegicus, UniProt O08775)
Sequence (O08775 786-1343): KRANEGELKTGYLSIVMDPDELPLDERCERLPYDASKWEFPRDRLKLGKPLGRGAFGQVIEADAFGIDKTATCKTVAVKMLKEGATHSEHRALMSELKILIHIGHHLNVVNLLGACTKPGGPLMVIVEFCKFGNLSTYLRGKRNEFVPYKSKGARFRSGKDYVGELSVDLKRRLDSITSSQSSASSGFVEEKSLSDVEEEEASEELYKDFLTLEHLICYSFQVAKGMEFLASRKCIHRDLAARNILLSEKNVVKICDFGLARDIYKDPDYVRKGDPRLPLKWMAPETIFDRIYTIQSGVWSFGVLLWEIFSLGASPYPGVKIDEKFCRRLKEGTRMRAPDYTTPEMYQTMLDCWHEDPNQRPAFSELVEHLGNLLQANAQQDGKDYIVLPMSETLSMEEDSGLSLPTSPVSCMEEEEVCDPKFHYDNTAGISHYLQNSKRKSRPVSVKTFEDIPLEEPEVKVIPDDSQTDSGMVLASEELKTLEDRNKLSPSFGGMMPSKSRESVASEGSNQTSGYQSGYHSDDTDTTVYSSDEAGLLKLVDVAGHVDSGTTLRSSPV
Listed here: items and their measured IC50.

O=C(Nc1ccccc1)Nc1cccc2nc(Nc3ccccc3)sc12 ... > 100 µM
O=C(Nc1cccc2sc(Nc3ccccc3)nc12)c1c(Cl)cc(Cl)cc1Cl ... > 100 µM

Next:
Input: State recorded IC50 with VEGF-R2 kinase domain (Rattus norvegicus, UniProt O08775), entry O=C(Nc1cccc2sc(Nc3ccccc3)nc12)c1ccccc1 , no comment.
Output: > 100 µM

---

testSystem: CDK2:Cyclin A (Homo sapiens, UniProt P24941)
measuredParameter: IC50 (µM)
Return type: number; implicit unit µM.

O=C(Cc1cc(F)cc(F)c1)Nc1cccc2sc(Nc3ccccc3)nc12 ... 2.12
O=C(Nc1cccc2sc(Nc3ccccc3)nc12)c1ccc2c(c1)OCO2 ... 11.6
Cc1ccc(F)c(C(=O)Nc2cccc3sc(Nc4ccccc4)nc23)c1F ... 0.156

Input: Fill in reported IC50 for this entry: CC(C)(C)C(=O)Nc1cccc2sc(Nc3ccccc3)nc12
Output: 13.3

---

Quick record: IC50, CDK2:Cyclin A (Homo sapiens).

Example compounds with recorded IC50:
COc1ccc(Nc2nc3c(NC(=O)c4c(F)ccc(C)c4F)cccc3s2)cc1 ... > 10 µM
O=C(CCc1ccccc1)Nc1cccc2sc(Nc3ccccc3)nc12 ... > 100 µM

The record that follows has no IC50 shown yet.
Input: Retrieve IC50 on CDK2:Cyclin A (Homo sapiens); query Cc1nnsc1C(=O)Nc1cccc2sc(Nc3ccccc3)nc12
Output: > 10 µM

---

Observed pIC50, system CDK2:Cyclin A (Homo sapiens).
pIC50: −log10 of the molar value.

O=C(Nc1cccc2sc(Nc3ccccc3)nc12)NC1CCCCC1 [Cpd 61] ... < 4.00
CC(C)(C)NC(=O)Nc1cccc2sc(Nc3ccccc3)nc12 [Cpd 60] ... < 4.00

Input: Print CDK2:Cyclin A (Homo sapiens) pIC50 for O=C(Nc1cccc2sc(Nc3ccccc3)nc12)C1CCCCCC1 [Cpd 55] .
Output: < 4.00
